subject.of.test: MAPK11 (human) (UniProt Q15759)
Sequence (Q15759 whole entry, looked up): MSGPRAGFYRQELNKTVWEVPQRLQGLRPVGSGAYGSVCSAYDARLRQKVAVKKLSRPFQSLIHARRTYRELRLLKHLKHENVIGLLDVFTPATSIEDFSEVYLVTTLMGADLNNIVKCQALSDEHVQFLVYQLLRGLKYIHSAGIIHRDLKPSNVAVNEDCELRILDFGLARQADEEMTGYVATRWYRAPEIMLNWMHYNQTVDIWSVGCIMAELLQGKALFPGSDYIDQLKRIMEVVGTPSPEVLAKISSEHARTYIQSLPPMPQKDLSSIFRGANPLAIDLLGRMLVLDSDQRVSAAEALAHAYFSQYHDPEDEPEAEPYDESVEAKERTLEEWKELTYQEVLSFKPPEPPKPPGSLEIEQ
assay.text: radiometric filter-binding kinase assay
assay.setup: compound 100.0 µM; ATP 20 µM
measured.parameter: inhibition (%)

Example cases with answers are listed next.
COc1ccc(NC(=S)Nc2cnc3[nH]cnn3c2=O)cn1	0
O=C(Nc1cnc2[nH]ccn2c1=O)c1ccccc1	23
CC1CN(c2nc3ccccn3c(=O)c2N)CC(C)O1 (stereo not given)	0
CC(=O)Nc1nc2cnc(-c3ccccc3)cn2n1	22
O=c1c(NC(=S)NCc2ccccc2)cnc2[nH]ccn12	7
O=C(Nc1cnc2[nH]cnn2c1=O)c1ccccc1	2
O=C(c1cccc(-c2cc3c(=O)[nH]cnc3s2)c1)N1CCOCC1	15
CC(C)(C)Nc1c(C2CC2)nc2[nH]cnn12	0
O=c1cc(-c2ccccc2F)nc2[nH]ccn12	23
Nc1nc2cnc(-c3ccccc3)cn2n1	34

[I] Nc1cnc2c(-c3c(F)cccc3F)cccn2c1=O
[II] CC(=O)Nc1nc2cnc(-c3c(C)cccc3C)cn2n1
Request: Return label of the item with the larger inhibition. Candidates: I , II . Identify your selection by its label.
Result: I

[I] COc1ccc(-c2cc3c(=O)[nH]cnc3s2)cc1OC
[II] CC(C)(C)Nc1c(COCc2ccccc2)nc2[nH]cnn12
Request: Which entry has a larger number for inhibition, I or II ? Pick one; state its label.
Result: I

---

subject.of.test: HIPK2 (human) (UniProt Q9H2X6)
Sequence (Q9H2X6 whole entry, looked up): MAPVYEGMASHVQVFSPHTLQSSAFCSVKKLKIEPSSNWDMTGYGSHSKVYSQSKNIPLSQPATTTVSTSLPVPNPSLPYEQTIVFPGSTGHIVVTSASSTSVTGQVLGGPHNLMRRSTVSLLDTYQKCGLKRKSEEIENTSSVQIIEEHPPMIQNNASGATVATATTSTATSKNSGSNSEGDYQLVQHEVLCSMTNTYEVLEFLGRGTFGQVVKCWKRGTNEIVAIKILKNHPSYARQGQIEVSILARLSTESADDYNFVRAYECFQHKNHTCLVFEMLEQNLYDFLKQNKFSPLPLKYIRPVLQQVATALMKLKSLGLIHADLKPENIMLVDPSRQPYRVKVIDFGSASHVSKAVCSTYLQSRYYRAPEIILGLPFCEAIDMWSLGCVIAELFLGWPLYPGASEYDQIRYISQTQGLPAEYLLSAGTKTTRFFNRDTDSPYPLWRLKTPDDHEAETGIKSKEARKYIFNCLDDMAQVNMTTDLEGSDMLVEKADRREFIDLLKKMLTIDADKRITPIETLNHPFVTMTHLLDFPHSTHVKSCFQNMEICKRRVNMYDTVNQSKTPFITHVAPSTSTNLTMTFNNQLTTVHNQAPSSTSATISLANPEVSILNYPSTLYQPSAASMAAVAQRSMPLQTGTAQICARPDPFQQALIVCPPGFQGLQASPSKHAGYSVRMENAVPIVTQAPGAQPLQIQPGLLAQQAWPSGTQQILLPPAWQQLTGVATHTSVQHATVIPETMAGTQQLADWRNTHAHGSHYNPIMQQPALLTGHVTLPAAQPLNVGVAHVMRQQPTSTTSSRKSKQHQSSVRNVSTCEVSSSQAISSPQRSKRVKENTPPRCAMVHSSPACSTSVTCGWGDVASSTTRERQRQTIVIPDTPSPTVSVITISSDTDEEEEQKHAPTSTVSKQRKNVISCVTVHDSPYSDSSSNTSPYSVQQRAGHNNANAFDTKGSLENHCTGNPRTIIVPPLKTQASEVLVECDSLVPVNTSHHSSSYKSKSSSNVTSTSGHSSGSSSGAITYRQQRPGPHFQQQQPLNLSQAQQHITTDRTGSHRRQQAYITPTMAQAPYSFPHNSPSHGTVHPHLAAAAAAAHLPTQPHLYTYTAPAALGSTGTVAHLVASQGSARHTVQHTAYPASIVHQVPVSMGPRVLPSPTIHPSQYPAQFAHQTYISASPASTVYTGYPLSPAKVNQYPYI
assay.text: radiometric filter-binding kinase assay
assay.setup: compound 100.0 µM; ATP 5 µM
measured.parameter: inhibition (%)

COc1ccc(-c2cc3c(=O)[nH]cnc3s2)cc1OC	58
CC(C)(C)Nc1c(COCc2ccccc2)nc2[nH]cnn12	18
Nc1nc2cnc(-c3ccccc3)cn2n1	57

[P] CC(=O)Nc1nc2cnc(-c3ccccc3)cn2n1
[Q] CC(C)(C)Nc1c(C2CC2)nc2[nH]cnn12
[R] Cc1cccc(C)c1-c1cn2nc(N)nc2cn1
Request: Hey, quick one: sort these by inhibition, low to high? A ranking is expressed here by listing the labels in the requested order.
Result: R, Q, P
(R: 8%, Q: 22%, P: 49%)

---

subject.of.test: CSK (human) (UniProt P41240)
assay.text: radiometric filter-binding kinase assay
assay.setup: compound 100.0 µM; ATP 20 µM
measured.parameter: inhibition (%)

Please review the entries below; each comes with its answer.
O=c1cc(-c2ccccc2F)nc2[nH]ccn12	8
O=C(Nc1cnc2[nH]cnn2c1=O)c1ccccc1	8

[P] O=c1c(NC(=S)NCc2ccccc2)cnc2[nH]ccn12
[Q] CC(=O)Nc1nc2cnc(-c3c(C)cccc3C)cn2n1
Request: Just tell me: smaller inhibition value, P or Q ? Reply briefly: the label of your chosen item.
Result: Q

[I] CC1CN(c2nc3ccccn3c(=O)c2N)CC(C)O1 (stereo not given)
[II] CC(=O)Nc1nc2cnc(-c3ccccc3)cn2n1
[III] COc1ccc(NC(=S)Nc2cnc3[nH]cnn3c2=O)cn1
[IV] Nc1cnc2c(-c3c(F)cccc3F)cccn2c1=O
[V] Nc1nc2cnc(-c3ccccc3)cn2n1
Request: Falling order of inhibition, please. Write the labels, ordered according to the request.
Result: V, II, III, IV, I
(V: 71%, II: 29%, III: 20%, IV: 11%, I: 0%)

[A] O=C(Nc1cnc2[nH]ccn2c1=O)c1ccccc1
[B] CC(C)(C)Nc1c(C2CC2)nc2[nH]cnn12
Request: Lab log: flag the item ( A or B ) with the smaller inhibition figure. Pick one; state its label.
Result: B

---

subject.of.test: MARK1 (human) (UniProt Q9P0L2)
Sequence (Q9P0L2 whole entry, looked up): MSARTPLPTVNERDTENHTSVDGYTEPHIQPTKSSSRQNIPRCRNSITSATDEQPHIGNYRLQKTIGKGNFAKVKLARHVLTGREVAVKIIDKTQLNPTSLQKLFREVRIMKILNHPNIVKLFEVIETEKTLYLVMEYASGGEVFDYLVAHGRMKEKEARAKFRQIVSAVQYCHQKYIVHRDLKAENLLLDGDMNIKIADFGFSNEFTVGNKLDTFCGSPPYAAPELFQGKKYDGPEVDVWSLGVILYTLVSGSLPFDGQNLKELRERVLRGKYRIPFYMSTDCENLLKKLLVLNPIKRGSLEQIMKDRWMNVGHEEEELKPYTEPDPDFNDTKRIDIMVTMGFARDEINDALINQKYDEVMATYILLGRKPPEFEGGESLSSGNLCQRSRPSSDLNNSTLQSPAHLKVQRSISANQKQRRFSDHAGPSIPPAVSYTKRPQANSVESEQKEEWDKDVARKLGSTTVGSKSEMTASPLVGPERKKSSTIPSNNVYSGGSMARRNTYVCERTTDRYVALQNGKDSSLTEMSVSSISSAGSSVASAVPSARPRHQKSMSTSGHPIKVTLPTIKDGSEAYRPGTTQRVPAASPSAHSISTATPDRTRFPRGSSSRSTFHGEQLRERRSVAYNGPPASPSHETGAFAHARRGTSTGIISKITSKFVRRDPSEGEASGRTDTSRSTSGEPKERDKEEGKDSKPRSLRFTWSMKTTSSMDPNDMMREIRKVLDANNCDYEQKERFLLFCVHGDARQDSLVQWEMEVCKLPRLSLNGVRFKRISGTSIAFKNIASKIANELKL
assay.text: radiometric filter-binding kinase assay
assay.setup: compound 100.0 µM; ATP 20 µM
measured.parameter: inhibition (%)

COc1ccc(NC(=S)Nc2cnc3[nH]cnn3c2=O)cn1	32
CC(=O)Nc1nc2cnc(-c3ccccc3)cn2n1	6
CC(=O)Nc1nc2cnc(-c3c(C)cccc3C)cn2n1	0

[P] O=C(c1cccc(-c2cc3c(=O)[nH]cnc3s2)c1)N1CCOCC1
[Q] Nc1nc2cnc(-c3ccccc3)cn2n1
Request: Would you kindly point out which of P and Q has the smaller inhibition figure? Select an item and report its label.
Result: Q

[a] CC(C)(C)Nc1c(C2CC2)nc2[nH]cnn12
[b] CC1CN(c2nc3ccccn3c(=O)c2N)CC(C)O1 (stereo not given)
Request: Hi! Which is lower in terms of inhibition, the first one a or the second one b ? State the label of the item chosen.
Result: a
(a: 0%, b: 26%)

[A] O=C(Nc1cnc2[nH]cnn2c1=O)c1ccccc1
[B] O=c1c(NC(=S)NCc2ccccc2)cnc2[nH]ccn12
[C] O=c1cc(-c2ccccc2F)nc2[nH]ccn12
[D] Nc1cnc2c(-c3c(F)cccc3F)cccn2c1=O
[E] COc1ccc(-c2cc3c(=O)[nH]cnc3s2)cc1OC
Request: Put these in order: smallest inhibition first, largest last. Answer with the labels in sequence, matching the requested order.
Result: A, C, B, E, D
(A: 0%, C: 5%, B: 13%, E: 27%, D: 49%)

---

subject.of.test: DAPK1 (human) (UniProt P53355)
Sequence (P53355 whole entry, looked up): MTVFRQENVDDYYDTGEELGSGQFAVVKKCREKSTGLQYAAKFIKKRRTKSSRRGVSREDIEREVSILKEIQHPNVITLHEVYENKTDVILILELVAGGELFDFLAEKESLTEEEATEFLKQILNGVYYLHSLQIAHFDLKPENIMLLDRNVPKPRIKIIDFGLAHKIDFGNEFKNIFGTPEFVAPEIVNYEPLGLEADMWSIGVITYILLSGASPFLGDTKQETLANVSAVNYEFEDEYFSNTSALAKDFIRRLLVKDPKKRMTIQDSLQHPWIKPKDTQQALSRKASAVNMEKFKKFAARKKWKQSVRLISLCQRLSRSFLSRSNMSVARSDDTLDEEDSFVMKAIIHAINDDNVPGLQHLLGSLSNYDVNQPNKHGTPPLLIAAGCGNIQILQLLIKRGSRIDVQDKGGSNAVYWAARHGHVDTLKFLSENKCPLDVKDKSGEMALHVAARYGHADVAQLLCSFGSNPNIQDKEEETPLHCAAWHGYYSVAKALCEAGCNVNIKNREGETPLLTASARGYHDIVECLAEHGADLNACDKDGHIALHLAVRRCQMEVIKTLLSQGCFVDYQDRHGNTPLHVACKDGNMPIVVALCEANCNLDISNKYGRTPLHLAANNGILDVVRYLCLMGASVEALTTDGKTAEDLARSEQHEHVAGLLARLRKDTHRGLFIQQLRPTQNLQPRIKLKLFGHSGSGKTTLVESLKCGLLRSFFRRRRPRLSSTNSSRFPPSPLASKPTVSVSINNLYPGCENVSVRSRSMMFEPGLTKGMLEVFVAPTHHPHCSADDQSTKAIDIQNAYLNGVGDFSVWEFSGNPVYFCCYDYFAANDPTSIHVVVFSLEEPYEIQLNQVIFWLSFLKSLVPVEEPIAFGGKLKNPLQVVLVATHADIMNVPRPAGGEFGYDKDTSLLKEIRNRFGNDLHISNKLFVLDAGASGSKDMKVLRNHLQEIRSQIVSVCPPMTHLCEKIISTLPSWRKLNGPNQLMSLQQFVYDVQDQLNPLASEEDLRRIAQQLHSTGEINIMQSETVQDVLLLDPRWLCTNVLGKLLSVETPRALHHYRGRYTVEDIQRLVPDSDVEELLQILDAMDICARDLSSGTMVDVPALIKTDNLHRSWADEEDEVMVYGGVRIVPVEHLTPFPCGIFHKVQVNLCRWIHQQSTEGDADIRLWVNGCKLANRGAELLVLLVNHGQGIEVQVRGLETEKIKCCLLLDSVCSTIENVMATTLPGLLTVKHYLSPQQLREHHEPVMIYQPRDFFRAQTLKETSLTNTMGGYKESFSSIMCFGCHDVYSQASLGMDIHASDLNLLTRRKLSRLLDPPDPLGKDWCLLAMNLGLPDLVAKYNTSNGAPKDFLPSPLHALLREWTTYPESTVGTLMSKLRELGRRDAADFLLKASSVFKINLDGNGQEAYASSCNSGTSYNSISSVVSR
assay.text: radiometric filter-binding kinase assay
assay.setup: compound 100.0 µM; ATP 5 µM
measured.parameter: inhibition (%)

// solved cases for inhibition follow
O=C(c1cccc(-c2cc3c(=O)[nH]cnc3s2)c1)N1CCOCC1	0
Nc1nc2cnc(-c3ccccc3)cn2n1	31
COc1ccc(-c2cc3c(=O)[nH]cnc3s2)cc1OC	0

[I] CC(C)(C)Nc1c(COCc2ccccc2)nc2[nH]cnn12
[II] CC(=O)Nc1nc2cnc(-c3c(C)cccc3C)cn2n1
Request: Between I and II , which one shows the smaller inhibition number? Give the label of your selection.
Result: II

---

subject.of.test: EPHA4 (human) (UniProt P54764)
assay.text: radiometric filter-binding kinase assay
assay.setup: compound 100.0 µM; ATP 50 µM
measured.parameter: inhibition (%)

Worked cases, answers included:
O=C(c1cccc(-c2cc3c(=O)[nH]cnc3s2)c1)N1CCOCC1	0
CC(C)(C)Nc1c(C2CC2)nc2[nH]cnn12	9
O=c1c(NC(=S)NCc2ccccc2)cnc2[nH]ccn12	15
CC1CN(c2nc3ccccn3c(=O)c2N)CC(C)O1 (stereo not given)	16
CC(=O)Nc1nc2cnc(-c3ccccc3)cn2n1	19
CC(=O)Nc1nc2cnc(-c3c(C)cccc3C)cn2n1	10
CC(C)(C)Nc1c(COCc2ccccc2)nc2[nH]cnn12	4
COc1ccc(NC(=S)Nc2cnc3[nH]cnn3c2=O)cn1	22
O=c1cc(-c2ccccc2F)nc2[nH]ccn12	16
Nc1nc2cnc(-c3ccccc3)cn2n1	42

[P] O=C(Nc1cnc2[nH]ccn2c1=O)c1ccccc1
[Q] Nc1cnc2c(-c3c(F)cccc3F)cccn2c1=O
Request: Between P and Q , whose measured inhibition reads higher? I would appreciate it if you answered with the label of your choice.
Result: Q

[I] COc1ccc(-c2cc3c(=O)[nH]cnc3s2)cc1OC
[II] Cc1cccc(C)c1-c1cn2nc(N)nc2cn1
Request: Consider entries I and II . Which has the numerically lower inhibition? Give the chosen item's label as your response.
Result: I
(I: 12%, II: 38%)

---

subject.of.test: GCK (human)
assay.text: radiometric filter-binding kinase assay
assay.setup: compound 100.0 µM; ATP 20 µM
measured.parameter: inhibition (%)

Examples with their reported inhibition follow.
Cc1cccc(C)c1-c1cn2nc(N)nc2cn1	59
O=C(c1cccc(-c2cc3c(=O)[nH]cnc3s2)c1)N1CCOCC1	7
COc1ccc(NC(=S)Nc2cnc3[nH]cnn3c2=O)cn1	0
O=C(Nc1cnc2[nH]cnn2c1=O)c1ccccc1	0

[I] COc1ccc(-c2cc3c(=O)[nH]cnc3s2)cc1OC
[II] O=c1cc(-c2ccccc2F)nc2[nH]ccn12
Request: From the recorded data, which exceeds the other in inhibition: I or II ? Lab note: record the label of whichever item you select.
Result: II

[1] CC(C)(C)Nc1c(COCc2ccccc2)nc2[nH]cnn12
[2] Nc1nc2cnc(-c3ccccc3)cn2n1
Request: Returns: the argument ( 1 or 2 ) having the larger inhibition. Please indicate the selected item by its label.
Result: 2

[A] CC(=O)Nc1nc2cnc(-c3c(C)cccc3C)cn2n1
[B] CC(C)(C)Nc1c(C2CC2)nc2[nH]cnn12
Request: Would you let me know which has the greater inhibition value, A or B ? Refer to your chosen item by its label in the answer.
Result: B
(B: 8%, A: 0%)

[A] CC1CN(c2nc3ccccn3c(=O)c2N)CC(C)O1 (configuration not stated)
[B] O=C(Nc1cnc2[nH]ccn2c1=O)c1ccccc1
Request: Looking at A and B , which one comes out lower in inhibition terms? Write down the label of the entry you select.
Result: A
(A: 0%, B: 6%)

---

subject.of.test: MARK2 (human) (UniProt Q7KZI7)
Sequence (Q7KZI7 whole entry, looked up): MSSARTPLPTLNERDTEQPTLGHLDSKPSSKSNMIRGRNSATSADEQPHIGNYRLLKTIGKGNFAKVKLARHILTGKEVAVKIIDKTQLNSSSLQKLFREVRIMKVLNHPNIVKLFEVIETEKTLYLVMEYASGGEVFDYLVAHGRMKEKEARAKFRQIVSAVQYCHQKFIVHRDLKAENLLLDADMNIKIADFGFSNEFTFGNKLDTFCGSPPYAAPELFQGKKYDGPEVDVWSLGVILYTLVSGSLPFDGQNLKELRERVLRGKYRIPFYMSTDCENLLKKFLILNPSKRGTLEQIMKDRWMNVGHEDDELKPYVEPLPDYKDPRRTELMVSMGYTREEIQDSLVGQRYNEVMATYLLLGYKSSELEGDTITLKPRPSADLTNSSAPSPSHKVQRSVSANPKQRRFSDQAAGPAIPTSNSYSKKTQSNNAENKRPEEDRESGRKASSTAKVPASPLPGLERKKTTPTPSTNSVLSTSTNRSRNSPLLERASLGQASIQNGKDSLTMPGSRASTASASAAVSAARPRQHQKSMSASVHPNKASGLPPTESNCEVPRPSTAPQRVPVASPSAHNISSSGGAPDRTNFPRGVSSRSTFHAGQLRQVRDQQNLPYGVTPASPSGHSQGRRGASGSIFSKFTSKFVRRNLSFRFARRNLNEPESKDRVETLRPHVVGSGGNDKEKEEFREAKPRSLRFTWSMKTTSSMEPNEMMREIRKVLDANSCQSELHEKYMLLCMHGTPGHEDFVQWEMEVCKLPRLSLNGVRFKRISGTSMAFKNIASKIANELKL
assay.text: radiometric filter-binding kinase assay
assay.setup: compound 100.0 µM; ATP 20 µM
measured.parameter: inhibition (%)

Field: example entries. Status: answers known.
O=c1cc(-c2ccccc2F)nc2[nH]ccn12	0
O=C(c1cccc(-c2cc3c(=O)[nH]cnc3s2)c1)N1CCOCC1	0
CC(=O)Nc1nc2cnc(-c3c(C)cccc3C)cn2n1	0
CC1CN(c2nc3ccccn3c(=O)c2N)CC(C)O1 (stereo not given)	13

[I] COc1ccc(-c2cc3c(=O)[nH]cnc3s2)cc1OC
[II] CC(C)(C)Nc1c(COCc2ccccc2)nc2[nH]cnn12
[III] Nc1cnc2c(-c3c(F)cccc3F)cccn2c1=O
[IV] Nc1nc2cnc(-c3ccccc3)cn2n1
Request: Thanks in advance: please rank these 4 entries by inhibition, highest to lowest. Give the labels in the order specified.
Result: III, II, IV, I
(III: 53%, II: 13%, IV: 2%, I: 0%)

[A] CC(C)(C)Nc1c(C2CC2)nc2[nH]cnn12
[B] CC(=O)Nc1nc2cnc(-c3ccccc3)cn2n1
Request: Which value of inhibition is numerically greater: that of A or that of B ? When you have decided, please share the label of that item.
Result: B
